Recorded IC50 for molecules tested on Insulin-like growth factor 1 receptor (Homo sapiens), drawn from a number of studies.

                         structure_notation  assay_value
0  COc1cc(Nc2nccc(N3CCC[C@@H](C(=O)NCc4ccc(C)cc4)C3)n2)cc(OC)c1OC      > 25 µM
1  NC(=O)c1ccc2c(c1)NC(=O)/C2=C(\Nc1ccc(CN2CCCCC2)cc1)c1ccccc1      > 10 µM
2  Cc1cc(C)c(/C=C2\C(=O)Nc3cccc(C)c32)[nH]1     > 100 µM
3  Clc1ccc(-c2ccc(-c3nccn3-c3ccc(N4CCNCC4)cc3)o2)cc1      > 30 µM

# next molecule below
IN: Recorded IC50 for COc1ccc(Nc2nccc(N3CCC[C@H](C(=O)NCc4ccc(C)cc4)C3)n2)cc1OC with Insulin-like growth factor 1 receptor (Homo sapiens), please?
OUT: > 25 µM

###

// read-out pIC50, gathered for Insulin-like growth factor 1 receptor (Homo sapiens) from published studies
pIC50: −log10 of the molar value.

Field: example entries. Status: answers known.
                                   compound  parameter_measured  assay_value
0         O=C1Nc2ccc(Cl)cc2/C1=C/c1ccc[nH]1               pIC50       < 4.00
1  COc1cc(Nc2nc(C)cc(Nc3cc(C4CC4)n[nH]3)n2)cc([N+](=O)[O-])c1               pIC50       ≤ 5.30

IN: API: value(readout=pIC50, system=Insulin-like growth factor 1 receptor (Homo sapiens)) for record C=CC(=O)NCc1coc(-c2c(N)ncnc2Nc2ccc(OCc3ccccn3)c(Cl)c2)n1
OUT: < 5.52

IN: O=C1Nc2ccccc2/C1=C/c1ccc(N2CCOCC2)cc1 , same question.
OUT: < 4.00

IN: Another compound to check: Cc1cccc2c1/C(=C/c1ccc(N(C)C)cc1)C(=O)N2
OUT: < 4.00

IN: Let us now turn to Cc1cc(C)c(/C=C2\C(=O)Nc3ccccc32)[nH]1
OUT: < 4.00

IN: Proceed to CC(C)OCCOc1cccc(-c2cn([C@H]3C[C@@H](CN4CCC4)C3)c3ncnc(N)c23)c1
OUT: 6.59

IN: One more compound: CCOC(=O)NN1CCN(CCCOc2cc3ncc(C#N)c(Nc4ccc(Sc5nc(C)c(C)n5CC)c(Cl)c4)c3cc2OC)CC1
OUT: 7.77

###

Study the reported IC50 values for Insulin-like growth factor 1 receptor (Homo sapiens) given below; they originate from different publications.

Illustrative cases are given below, each with its answer.
>>> print(df.to_string())
                         structure_notation  assay_value
0  N[C@@H](CCCCN/C=C1\C(=O)Nc2ccccc21)C(=O)O      > 10 µM
1  N[C@@H](CCCCN/C=C1\C(=O)Nc2ccc(Br)cc21)C(=O)O      > 10 µM
2  COc1cc(Nc2ccnc3cc(Cl)ccc23)ccc1-c1nc2ccccc2s1      > 10 µM

IN: Endpoint output: IC50 of COC(=O)CCc1c[nH]c(/C=C2\C(=O)Nc3ccccc32)c1C . Value?
OUT: > 100 µM

IN: Same lookup for COc1ccc(/C=C2\C(=O)Nc3ccc(Cl)cc32)cc1C(C)(C)C , please.
OUT: > 100 µM

IN: Same read-out for CN1CCN(c2ccc(OC(F)(F)F)c(Nc3nccc(-c4cc(C(N)=O)cn4C)n3)c2)CC1 ?
OUT: > 10 µM
